- Assayed System: human dopamine D2L receptor (Homo sapiens, UniProt P14416)
- Sequence (P14416 whole entry): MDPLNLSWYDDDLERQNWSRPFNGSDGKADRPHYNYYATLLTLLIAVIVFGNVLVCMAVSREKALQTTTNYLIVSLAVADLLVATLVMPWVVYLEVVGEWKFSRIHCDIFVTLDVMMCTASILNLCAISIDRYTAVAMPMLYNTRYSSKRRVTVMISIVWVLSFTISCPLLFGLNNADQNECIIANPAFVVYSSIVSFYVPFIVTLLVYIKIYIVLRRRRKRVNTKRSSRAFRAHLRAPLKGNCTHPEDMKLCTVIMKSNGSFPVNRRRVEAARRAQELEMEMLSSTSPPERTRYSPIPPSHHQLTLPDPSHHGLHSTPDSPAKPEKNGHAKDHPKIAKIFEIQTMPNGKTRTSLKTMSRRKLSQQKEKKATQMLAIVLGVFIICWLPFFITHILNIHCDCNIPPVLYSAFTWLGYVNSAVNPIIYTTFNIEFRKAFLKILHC
- Measurement Notes: Dopamine D2L radioligand binding ([3H]Spiperone)
- Measurement Parameters: compound at 1 μM; […] [3H]Spiperone; read-out: Inhibition of ligand binding, Dopamine D2L (percent inhibition of specific binding)
// no strictly below 20% in inhibition at 1 µM; yes otherwise

Check out these entries, answers already filled in.
>  <Compound>
CCOC(=O)/C=C(/Cn1c2c(c3cc(C)ccc31)CN(C)CC2)c1ccc(F)cc1 [Compound No. 350]

>  <Cat>
no

$$$$
>  <Compound>
Cc1ccc2c(c1)c1c(n2/C=C(\F)c2cscn2)CCN(C)C1 [compound 438]

>  <Cat>
no

$$$$
>  <Compound>
CNC(=O)c1ccc(/C(F)=C(/c2ccc(C(=O)NC)c(F)c2)n2c3c(c4cc(C)ccc42)CN(C)CC3)cc1F [compound 423]

>  <Cat>
no

$$$$
>  <Compound>
Cc1ccc2c(c1)c1c(n2C#Cc2ccccc2)CCN(C)C1 [Compound No. 490]

>  <Cat>
yes

$$$$
>  <Compound>
COc1ccc(/C(F)=C(/c2ccc(OC)nc2)n2c3c(c4cc(C)ccc42)CN(C)CC3)cn1 [compound 420]

>  <Cat>
yes

$$$$

Q) Quick check, inhibition at 1 µM >= 20%? C/C(=C\n1c2c(c3cc(Cl)ccc31)CNCC2)c1ccncc1 [compound 402]
A) yes

Q) Quick check, inhibition at 1 µM >= 20%? Cc1ccc2c(c1)c1c(n2C#Cc2ccc(Cl)cc2)CCN(C)C1 [Compound No. 481]
A) yes

Q) Quick check, inhibition at 1 µM >= 20%? C/C(=C\n1c2c(c3cc(N4CCN(C)CC4)ccc31)CN(C)CC2)c1ccncc1 [compound 437]
A) no

----------
- Assayed System: human recombinant serotonin (5-Hydroxytryptamine) 5-HT2B receptor (Homo sapiens, UniProt P41595)
- Construct: expressed in transfected cells; host or cells: Chinese hamster ovary (CHO-K1) cells
- Sequence (P41595 whole entry): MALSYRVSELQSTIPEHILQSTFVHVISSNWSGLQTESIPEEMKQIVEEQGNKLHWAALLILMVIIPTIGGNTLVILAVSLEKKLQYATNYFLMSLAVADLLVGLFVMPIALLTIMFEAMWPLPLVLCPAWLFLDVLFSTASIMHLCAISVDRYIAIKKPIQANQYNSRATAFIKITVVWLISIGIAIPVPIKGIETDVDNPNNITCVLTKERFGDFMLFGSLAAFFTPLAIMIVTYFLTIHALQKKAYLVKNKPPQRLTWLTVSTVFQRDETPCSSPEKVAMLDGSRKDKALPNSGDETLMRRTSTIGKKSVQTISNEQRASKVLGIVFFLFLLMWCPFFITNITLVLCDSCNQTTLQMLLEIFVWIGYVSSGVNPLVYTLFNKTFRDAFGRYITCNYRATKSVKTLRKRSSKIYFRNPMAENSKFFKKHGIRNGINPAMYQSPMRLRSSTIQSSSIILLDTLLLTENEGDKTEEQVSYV
- Measurement Notes: Serotonin 5-HT2B radioligand binding ([3H]LSD)
- Measurement Parameters: compound at 1 μM; read-out: Inhibition of ligand binding, Serotonin 5-HT2B (percent inhibition of specific binding)
// not satisfied strictly below 30% in inhibition at 1 µM; satisfied otherwise

>  <Molecule>
Cc1ccc2c(c1)c1c(n2CC#Cc2ccccn2)CCN(C)C1 [Compound No. 500]

>  <Cat>
satisfied

$$$$

Pending molecule:
Q) Quick check, inhibition at 1 µM >= 30%? Cc1ccc(C(O)Cn2c3c(c4ccccc42)CN(C)CC3)cc1 (racemic) [Compound 53]
A) not satisfied

----------
- Assayed System: human dopamine D2L receptor (Homo sapiens)
- Measurement Notes: Dopamine D2L radioligand binding ([3H]Spiperone)
- Measurement Parameters: percent inhibition of specific binding; compound at 1 μM; read-out: Inhibition of ligand binding, Dopamine D2L
Class boundaries, taken from values of inhibition at 1 µM, are as follows: bin 1: < 20%; bin 2: ≥ 20% and < 90%; bin 3: ≥ 90%

>  <Compound>
C/C(=C\n1c2c(c3cc(C)ccc31)CN(C)C(C)C2)c1ccc(F)cc1 (stereo not drawn)

>  <Cat>
bin 2

$$$$

Q) Where would COc1ccc(C(C)(O)Cn2c3c(c4cc(Cl)ccc42)CN(C)CC3)cc1 (stereo not drawn) land among the classes by reported inhibition at 1 µM?
A) bin 2

Q) Where would `C/C(=C\n1c2c(c3cc(Cl)ccc31)CN(C)CC2)c1cccs1` land among the classes by reported inhibition at 1 µM?
A) bin 3

Q) Where would `C/C(=C\n1c2c(c3cc(C)ccc31)CN(C)CC2)c1cccs1` land among the classes by reported inhibition at 1 µM?
A) bin 2

Q) Where would CC(C)C(O)(Cn1c2c(c3cc(Cl)ccc31)CN(C)CC2)c1ccncc1 (stereo not drawn) land among the classes by reported inhibition at 1 µM?
A) bin 1

----------
- Assayed System: human recombinant serotonin (5-Hydroxytryptamine) 5-HT7 receptor (Homo sapiens)
- Sequence (P34969 whole entry): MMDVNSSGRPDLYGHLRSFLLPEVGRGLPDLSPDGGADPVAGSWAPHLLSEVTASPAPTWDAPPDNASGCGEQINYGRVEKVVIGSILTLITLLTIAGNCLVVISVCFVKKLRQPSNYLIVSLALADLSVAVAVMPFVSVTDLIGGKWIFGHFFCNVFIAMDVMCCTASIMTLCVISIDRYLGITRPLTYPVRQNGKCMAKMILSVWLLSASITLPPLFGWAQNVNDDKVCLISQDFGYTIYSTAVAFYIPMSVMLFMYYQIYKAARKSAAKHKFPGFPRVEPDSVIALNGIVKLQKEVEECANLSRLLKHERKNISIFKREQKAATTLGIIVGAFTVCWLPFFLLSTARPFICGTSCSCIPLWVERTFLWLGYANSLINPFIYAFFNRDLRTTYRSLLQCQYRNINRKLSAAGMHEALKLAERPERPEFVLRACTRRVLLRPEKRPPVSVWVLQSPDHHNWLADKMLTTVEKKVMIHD
- Measurement Notes: Serotonin 5-HT7 radioligand binding ([3H]LSD)
- Measurement Parameters: compound at 1 μM; read-out: Inhibition of ligand binding, Serotonin 5-HT7 (percent inhibition of specific binding)
Measurement Kind: inhibition at 1 µM (%)
Quick reminder: number only, in %, skip the unit.

>  <Compound>
C/C(=C\n1c2c(c3ccccc31)CN(C)CC2)c1ccc(F)cc1

>  <Readout Unit>
%

>  <inhibition at 1 µM>
102

$$$$
>  <Compound>
C/C(=C\n1c2c(c3cc(C)ccc31)CN(C)CC2)c1ccc(Cl)c(Cl)c1

>  <Readout Unit>
%

>  <inhibition at 1 µM>
94

$$$$
>  <Compound>
C/C(=C/n1c2c(c3cc(Cl)c(Cl)cc31)CN(C)CC2)c1ccncc1

>  <Readout Unit>
%

>  <inhibition at 1 µM>
99

$$$$
>  <Compound>
Cc1ccc2c(c1)c1c(n2CC#Cc2ccccn2)CCN(C)C1

>  <Readout Unit>
%

>  <inhibition at 1 µM>
48

$$$$

Q) Quickly give me recorded inhibition at 1 µM for CN1CCc2c(c3ccc(Cl)cc3n2CC(C)(O)c2ccncc2)C1 (centres unmarked)
A) 48

Q) Quickly give me recorded inhibition at 1 µM for `Cc1ccc2c(c1)c1c(n2C#Cc2ccc(C)nc2)CCN(C)C1`
A) 90

Q) Quickly give me recorded inhibition at 1 µM for `C/C(=C\n1c2c(c3cc(C)ccc31)CN(C)CC2)c1ccc(Cl)cc1`
A) 101

Q) Quickly give me recorded inhibition at 1 µM for Cc1ccc(C(O)Cn2c3c(c4ccccc42)CN(C)CC3)cc1 (racemic)
A) 87

Q) Quickly give me recorded inhibition at 1 µM for Cc1ccc2c(c1)c1c(n2CC(O)(c2ccc(F)cc2)C2CCCCC2)CCN(C)C1 (centres unmarked)
A) 42

Q) Quickly give me recorded inhibition at 1 µM for COc1ccc(C(C)(O)Cn2c3c(c4cc(C)ccc42)CN(C)CC3)cc1 (centres unmarked)
A) 95

Q) Quickly give me recorded inhibition at 1 µM for `C/C(=C\n1c2c(c3c(Cl)c(Cl)ccc31)CN(C)CC2)c1ccc(F)cc1`
A) 84

Q) Quickly give me recorded inhibition at 1 µM for `CNC(=O)C/C(=C\n1c2c(c3cc(C)ccc31)CN(C)CC2)c1ccc(F)cc1`
A) 92

Q) Quickly give me recorded inhibition at 1 µM for CN1CCc2c(c3c(Cl)c(Cl)ccc3n2CC(C)(O)c2ccncc2)C1 (centres unmarked)
A) 47

Q) Quickly give me recorded inhibition at 1 µM for `C/C(=C\n1c2c(c3cc(Cl)ccc31)CN(C)CC2)c1ccc(F)c(F)c1`
A) 94

Q) Quickly give me recorded inhibition at 1 µM for `C/C(=C/n1c2c(c3cc(C)ccc31)CN(C)CC2)c1cccc(F)c1`
A) 94

Q) Quickly give me recorded inhibition at 1 µM for CN1CCc2c(c3cc(Cl)ccc3n2CC(O)(c2ccc(F)cc2)C2CCC2)C1 (centres unmarked)
A) 42

Q) Quickly give me recorded inhibition at 1 µM for `C/C(=C\n1c2c(c3cc(C)ccc31)CN(C)CC2)c1ccc(O)cc1`
A) 96

Q) Quickly give me recorded inhibition at 1 µM for `C/C=C/C(=C\n1c2c(c3cc(Cl)ccc31)CN(C)CC2)c1ccc(F)cc1`
A) 93

Q) Quickly give me recorded inhibition at 1 µM for `C=C(Cn1c2c(c3cc(OC)ccc31)CN(C)CC2)c1ccncc1`
A) 60

Q) Quickly give me recorded inhibition at 1 µM for CN1CCc2c(c3cc(Cl)c(Cl)cc3n2CC(C)(O)c2ccncc2)C1 (centres unmarked)
A) 82

Q) Quickly give me recorded inhibition at 1 µM for `CN1CCc2c(c3cc(Cl)ccc3n2/C=C(\c2ccc(F)cc2)C2CC2)C1`
A) 95

Q) Quickly give me recorded inhibition at 1 µM for `C/C(=C\n1c2c(c3ccc(Cl)cc31)CN(C)CC2)c1ccncc1`
A) 94

----------
- Assayed System: human dopamine D2L receptor (Homo sapiens, UniProt P14416)
- Measurement Notes: Dopamine D2L radioligand binding ([3H]Spiperone)
- Measurement Parameters: compound at 1 μM; […] [3H]Spiperone; read-out: Inhibition of ligand binding, Dopamine D2L (percent inhibition of specific binding)
// 0.0 strictly below 80% in inhibition at 1 µM; 1.0 otherwise

>  <Compound>
C/C(=C\n1c2c(c3cc(C)ccc31)CN(C)CC2)c1ccsc1

>  <Cat>
1.0

$$$$
>  <Compound>
CC(=O)N(C)c1ccc2c(c1)c1c(n2/C=C(\C)c2ccncc2)CCN(C)C1

>  <Cat>
0.0

$$$$
>  <Compound>
CO/C(=C(/C)n1c2c(c3cc(C)ccc31)CN(C)CC2)c1ccncc1

>  <Cat>
0.0

$$$$

Q) Quick check, inhibition at 1 µM >= 80%? `C/C(=C\n1c2c(c3cc(C)ccc31)CN(C)CC2)c1ccc(S(C)(=O)=O)cc1`
A) 0.0

Q) Quick check, inhibition at 1 µM >= 80%? CC(O)(Cn1c2c(c3cc(Cl)ccc31)CN(CCCC(=O)c1ccc(F)cc1)CC2)c1ccncc1 (centres unmarked)
A) 1.0

Q) Quick check, inhibition at 1 µM >= 80%? `C/C(=C\n1c2c(c3cc(C)ccc31)CN(C)[C@@H](C)C2)c1ccncc1`
A) 0.0

Q) Quick check, inhibition at 1 µM >= 80%? `COc1ccc(/C(F)=C/n2c3c(c4cc(C)ccc42)CN(C)CC3)cn1`
A) 0.0
